test.target: T1, ETS1Δ335 (UniProt P14921 335-441)
T1 sequence: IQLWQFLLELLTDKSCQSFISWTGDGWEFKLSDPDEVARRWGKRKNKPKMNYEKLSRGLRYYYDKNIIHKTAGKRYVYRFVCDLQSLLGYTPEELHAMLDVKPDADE
test.method.notes: EMSA
Catalogue of binders with associated Kd
measurement.label: Kd (nM)

{"columns": ["binder", "experimental.result"],
 "data": [
  ["MMP3 WT (dsDNA) DNA 1: ACAGGAAGCACTTCCTGG DNA 2: CCAGGAAGTGCTTCCTGT", 1.2],
  ["MMP3 M2 (dsDNA) DNA 1: ACAGGAAGCACTTTTTGG DNA 2: CCAAAAAGTGCTTCCTGT", 6.37],
  ["MMP3 M1 (dsDNA) DNA 1: ACAAAAAGCACTTCCTGG DNA 2: CCAGGAAGTGCTTTTTGT", 13.5]
]}
